Entry source: patent US20250109165A1

- System name: CypE (Homo sapiens, UniProt Q9UNP9)
- Construct: PPIE (UniProtKB Entry Q9UNP9: res 131-301); host or cells: E. coli BL21(DE3)
- Sequence (Q9UNP9 131-301): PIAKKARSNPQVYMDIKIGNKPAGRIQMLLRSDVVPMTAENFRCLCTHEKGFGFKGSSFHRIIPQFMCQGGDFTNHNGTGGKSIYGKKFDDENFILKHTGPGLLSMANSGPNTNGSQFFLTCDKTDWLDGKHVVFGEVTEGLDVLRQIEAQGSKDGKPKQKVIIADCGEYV
- Test name: Chymotrypsin coupled prolyl-isomerase assay
- Type: biochemical
- Run parameters: wild-type CypE; read-out: IC50 against CypE prolyl isomerase activity
Readout name: IC50
Note: state the figure and append the unit.

Form: compound = NC(=O)[C@@H]1CCNC(=O)/C=C/C(=O)N2CCC[C@](Cc3ccccc3)(C2)C(=O)N[C@@H](Cc2ccc(-c3ccc(C=O)c(B(O)O)c3)cc2)C(=O)NCc2ccccc2CC(=O)N1 ; IC50 = 13 nM
